Sourced from paper PMC6491884

- System: HaCaT (human immortalized epidermal cells)
- ASSAY: MTT growth inhibition assay, HaCaT normal cells
- Type: cell-based
- EXPERIMENTAL_CONTEXT: 48 h, read-out: IC50 (μM) HaCaT, MTT, 48 h, n = 3, normal cell line
ENDPOINT_NAME: IC50

Solved cases below.
MOLECULE | ENDPOINT_NAME | ENDPOINT_VALUE
COc1cc([C@@H]2c3cc4c(cc3[C@@H](NC(=O)CNCc3ccccc3)[C@H]3COC(=O)[C@H]23)OCO4)cc(OC)c1O [Compound 12n] | IC50 | 13.3 µM
COc1cc([C@@H]2c3cc4c(cc3[C@@H](NC(=O)CN3CCOCC3)[C@H]3COC(=O)[C@H]23)OCO4)cc(OC)c1OC [Compound 12e] | IC50 | > 50 µM

Consider the record given below.
Give the value of IC50 reported for the following: CCN(CC)CC(=O)N[C@@H]1c2cc3c(cc2[C@@H](c2cc(OC)c(O)c(OC)c2)[C@H]2C(=O)OC[C@@H]21)OCO3 [Compound 12k]
> 50 µM

* * *

Exercise: for every item that follows, state its recorded melting point.

Solved cases below.
MOLECULE | ENDPOINT_VALUE
COc1cc([C@@H]2c3cc4c(cc3[C@@H](NC(=O)CN(CCO)CCO)[C@H]3COC(=O)[C@H]23)OCO4)cc(OC)c1OC [Compound 12m] | 105 to 107 °C
COc1cc([C@@H]2c3cc4c(cc3[C@@H](NC(=O)CNCCc3ccc(O)cc3)[C@H]3COC(=O)[C@H]23)OCO4)cc(OC)c1OC [Compound 12t] | 116 to 119 °C
CCN(CC)CC(=O)N[C@@H]1c2cc3c(cc2[C@@H](c2cc(OC)c(O)c(OC)c2)[C@H]2C(=O)OC[C@@H]21)OCO3 [Compound 12k] | 106 to 108 °C
CCCCNCC(=O)N[C@@H]1c2cc3c(cc2[C@@H](c2cc(OC)c(OC)c(OC)c2)[C@H]2C(=O)OC[C@@H]21)OCO3 [Compound 12i] | 92 to 95 °C
COc1ccc(CCNCC(=O)N[C@@H]2c3cc4c(cc3[C@@H](c3cc(OC)c(OC)c(OC)c3)[C@H]3C(=O)OC[C@@H]32)OCO4)cc1OC [Compound 12r] | 106 to 108 °C

Give the value of melting point reported for the following: COc1cc([C@@H]2c3cc4c(cc3[C@@H](NC(=O)CN(CCO)CCO)[C@H]3COC(=O)[C@H]23)OCO4)cc(OC)c1O [Compound 12l]
212 to 214 °C

* * *

Exercise: for every item that follows, state its recorded IC50.
- Tested on: HeLA (human cervical carcinoma)
- ASSAY: MTT growth inhibition assay, HeLA
- Type: cell-based
- EXPERIMENTAL_CONTEXT: Homo sapiens, 48 h, read-out: IC50 (μM) HeLA, MTT, 48 h, n = 3
- Experimental: Target compounds 12a–t were evaluated for in vitro cytotoxicity against four human tumor cell lines, including H460 (non-small cell lung carcinoma), HeLA (human cervical carcinoma), EC9706 (human esophageal squamous cell carcinoma), and T24 (human bladder carcinoma), using HaCaT (human immortalized epidermal cells) as a human non-malignant cell line. Etoposide (3) was included as a positive control. […]
Numbers only, in µM.

Solved cases below.
COMPOUND | IC50 [µM]
COc1cc([C@@H]2c3cc4c(cc3[C@@H](NC(=O)CNCc3ccccc3)[C@H]3COC(=O)[C@H]23)OCO4)cc(OC)c1O [Compound 12n] | 6.26
COc1cc([C@@H]2c3cc4c(cc3[C@@H](NC(=O)CN(CCO)CCO)[C@H]3COC(=O)[C@H]23)OCO4)cc(OC)c1OC [Compound 12m] | 36.4

Consider the record given below.
Write down the reported IC50 (system: HeLA (human cervical carcinoma)) of COc1ccc(CCNCC(=O)N[C@@H]2c3cc4c(cc3[C@@H](c3cc(OC)c(O)c(OC)c3)[C@H]3C(=O)OC[C@@H]32)OCO4)cc1OC [Compound 12q]
4.57

* * *

Exercise: for every item that follows, state its recorded IC50.
- Test system: HeLA (human cervical carcinoma)
- ASSAY: MTT growth inhibition assay, HeLA
- Format: cell-based
- EXPERIMENTAL_CONTEXT: Homo sapiens, 48 h, read-out: IC50 (μM) HeLA, MTT, 48 h, n = 3
Numbers only, in µM.

Solved cases below.
MOLECULE | IC50 / µM
COc1cc([C@@H]2c3cc4c(cc3[C@@H](NC(=O)CNCCc3ccc(O)cc3)[C@H]3COC(=O)[C@H]23)OCO4)cc(OC)c1O [Compound 12s] | 2.27
COc1cc([C@@H]2c3cc4c(cc3[C@@H](NC(=O)CN3CCCC3)[C@H]3COC(=O)[C@H]23)OCO4)cc(OC)c1O [Compound 12a] | 12.7
CCCNCC(=O)N[C@@H]1c2cc3c(cc2[C@@H](c2cc(OC)c(O)c(OC)c2)[C@H]2C(=O)OC[C@@H]21)OCO3 [Compound 12f] | 23.9

Consider the record given below.
Give the value of IC50 reported for the following: CCCCNCC(=O)N[C@@H]1c2cc3c(cc2[C@@H](c2cc(OC)c(O)c(OC)c2)[C@H]2C(=O)OC[C@@H]21)OCO3 [Compound 12h]
1.21

* * *

Exercise: for every item that follows, state its recorded IC50.
- System: HeLA (human cervical carcinoma)
- ASSAY: MTT growth inhibition assay, HeLA
- Format: cell-based
- EXPERIMENTAL_CONTEXT: Homo sapiens, 48 h, read-out: IC50 (μM) HeLA, MTT, 48 h, n = 3

Solved cases below.
COMPOUND | IC50
COc1cc([C@@H]2c3cc4c(cc3[C@@H](NC(=O)CNc3ccc(F)cc3)[C@H]3COC(=O)[C@H]23)OCO4)cc(OC)c1O [Compound 12p] | > 50 µM
CCCCNCC(=O)N[C@@H]1c2cc3c(cc2[C@@H](c2cc(OC)c(OC)c(OC)c2)[C@H]2C(=O)OC[C@@H]21)OCO3 [Compound 12i] | > 50 µM

Consider the record given below.
Give the value of IC50 reported for the following: COc1cc([C@@H]2c3cc4c(cc3[C@@H](NC(=O)CN3CCOCC3)[C@H]3COC(=O)[C@H]23)OCO4)cc(OC)c1O [Compound 12d]
> 50 µM
